Hey, just so you know, these numbers are from PubChem BioAssay.

Give inhibition for every item shown.
Experiment: VP16 transactivation inhibitors, counter-screen for SRC1 inhibitor project, cell-based, luminescence, high throughput (AID 588824)
Conditions: cell-based VP16 transactivation luciferase luminescence; at 3.6 µM; hits give high values
The source made the active and inactive calls. No stated cut-off is given here; in the data, active means inhibition above about 25%; inactive means the rest.

Enquiry: Reported inhibition for O=C(NCCS(=O)(=O)N1CCN(c2cccc(Cl)c2)CC1)C1CC1 : what is it?
Return: 18.9% (inactive)

Enquiry: Reported inhibition for NS(=O)(=O)c1ccc(N=Nc2c(O)ccc3ccccc23)cc1 : what is it?
Return: 4.7% (inactive)

Enquiry: Reported inhibition for CN(C)CCNc1ccc(CO)c2sc3ccc(O)cc3c(=O)c12 : what is it?
Return: 39.1% (active)

Enquiry: Reported inhibition for c1cc(-c2cnc3cccnn23)c2cccnc2c1 : what is it?
Return: 40.2% (active)

Enquiry: Reported inhibition for CC(C)(C)c1ccc(C(=O)NCCOc2ccccc2F)cc1 : what is it?
Return: -47.6% (inactive)

Enquiry: Reported inhibition for O=C(Nc1ccc2c(c1)OCCO2)C(c1cc2ccccc2o1)N1CCN(c2ccc(F)cc2)CC1 (centres undefined) : what is it?
Return: -2.84% (inactive)

Enquiry: Reported inhibition for Cc1sc2ncn3ncnc3c2c1C : what is it?
Return: 27.7% (active)

Enquiry: Reported inhibition for N#CCCN(C(=O)COC(=O)c1ccc2c(=O)n3c(nc2c1)CCC3)c1ccc(F)cc1 : what is it?
Return: 2.54% (inactive)

Enquiry: Reported inhibition for O=C(N/N=C\c1ccc([N+](=O)[O-])o1)C1COc2ccccc2O1 (centres undefined) : what is it?
Return: -19.5% (inactive)

Enquiry: Reported inhibition for O=[N+]([O-])c1cc(CN2CCN(c3ccccc3)CC2)c(O)c2ncccc12 : what is it?
Return: 50.8% (active)

Enquiry: Reported inhibition for O=C(Nc1nc(-c2ccc(F)c(F)c2)cs1)c1cnccn1 : what is it?
Return: -11.4% (inactive)

Enquiry: Reported inhibition for COc1ccc(NC(=O)CCn2c(=S)[nH]c3ccccc3c2=O)cc1 : what is it?
Return: 0.97% (inactive)

Enquiry: Reported inhibition for Cc1cc(C(=O)COc2cccnc2[N+](=O)[O-])c(C)n1-c1ccccc1 : what is it?
Return: -70.8% (inactive)

Enquiry: Reported inhibition for COC(=O)c1ccsc1NC(=O)CN1CCN(c2ncccn2)CC1 : what is it?
Return: -17.6% (inactive)

Enquiry: Reported inhibition for CC1=C(C(=O)OCc2ccc3c(c2)OCO3)C(c2ccccc2)NC(=O)N1 (centres undefined) : what is it?
Return: 61.8% (active)

Enquiry: Reported inhibition for CC(=NCc1cccc(Cl)c1)c1nc(-c2ccco2)oc1O : what is it?
Return: 45% (active)

Enquiry: Reported inhibition for Brc1ccc2c(c1)CN1CCCC1=N2 : what is it?
Return: 28% (active)

Enquiry: Reported inhibition for Cc1cc(C)n(-c2ccc(C(=O)Nc3ccc(S(=O)(=O)NCc4ccco4)cc3)cc2)n1 : what is it?
Return: 24.2% (inactive)

Enquiry: Reported inhibition for CCN(CC)S(=O)(=O)c1ccc(/C=C/C(=O)Nc2ccc(Br)cc2F)cc1 : what is it?
Return: 41.9% (active)

Enquiry: Reported inhibition for Cc1ccc(-n2c(-c3ccccc3)c[n+]3c2CCc2ccccc2-3)c(C)c1 : what is it?
Return: 69.4% (active)

Enquiry: Reported inhibition for C[C@H](N)c1nnc(SCC(N)=O)o1 : what is it?
Return: -12.9% (inactive)

Enquiry: Reported inhibition for Cc1ccc(C(=O)CSc2cnc3ccccc3n2)cc1C : what is it?
Return: -68.1% (inactive)

Enquiry: Reported inhibition for CCOc1ccc(NC(=O)CN(C)C(=O)C2CCN(c3ncnc4sc(C)c(C)c34)CC2)cc1OCC : what is it?
Return: 3.14% (inactive)

Enquiry: Reported inhibition for COc1ccc(S(=O)(=O)N2CCCCCC2)cc1C(=O)N(C)CCOc1ccccc1 : what is it?
Return: -8.6% (inactive)

Enquiry: Reported inhibition for COc1ccc(NC(=O)c2ccccc2Cl)cc1NC(=O)CN1CCOCC1 : what is it?
Return: -7.93% (inactive)

Enquiry: Reported inhibition for CC1CN(S(=O)(=O)c2ccc(C(=O)NCCCn3ccnc3)cc2)CC(C)O1 (centres undefined) : what is it?
Return: 30.4% (active)

Enquiry: Reported inhibition for CCCCCCCCCn1c2c(c(=N)c3c1CCC3)CCCC2 : what is it?
Return: 85.3% (active)

Enquiry: Reported inhibition for CCN(CC)CCCNc1ccc2ncn3c4ccc(O)cc4c(=O)c1c23 : what is it?
Return: 49.9% (active)

Enquiry: Reported inhibition for CN(Cc1ccccc1)C1=CC(=[N+]2CCCC2)CC(C)(C)C1 : what is it?
Return: 63.1% (active)

Enquiry: Reported inhibition for Cc1cc(/C=c2/sc3nc4ccccc4n3c2=O)c(C)n1-c1ccccn1 : what is it?
Return: 81.6% (active)

Enquiry: Reported inhibition for NC(=O)c1sc2nc3c(c(-c4ccco4)c2c1N)CCC3 : what is it?
Return: 33.1% (active)

Enquiry: Reported inhibition for CCOc1cccc(C(=O)Nc2nc(-c3ccc(S(=O)(=O)N4CCOCC4)cc3)cs2)c1 : what is it?
Return: -6.23% (inactive)

Enquiry: Reported inhibition for CCC1=C(CC2NCCc3ccccc32)CC2c3cc(OC)c(OC)cc3CCN2C1 (centres undefined) : what is it?
Return: 85.7% (active)

Enquiry: Reported inhibition for Nc1ccc(C(=O)N/N=C\c2cc(N=Nc3cccc4ccccc34)ccc2O)cc1 : what is it?
Return: 31.8% (active)

Enquiry: Reported inhibition for OCC1OC(n2ccc3c2ncn2ncnc32)C(O)C1O (centres undefined) : what is it?
Return: 38.2% (active)

Enquiry: Reported inhibition for c1ccc(-c2nnc(-c3ccccn3)nc2NC2CCCCC2)cc1 : what is it?
Return: 18.8% (inactive)

Enquiry: Reported inhibition for COc1ccc(CN(CC(=O)NCc2ccccc2)C(=O)CCC(=O)Nc2cc(C)ccn2)cc1 : what is it?
Return: 0.36% (inactive)

Enquiry: Reported inhibition for CCc1nc2c(OCc3c(C)noc3C)cccn2c1N(C=O)Cc1ccccc1 : what is it?
Return: -5.1% (inactive)

Enquiry: Reported inhibition for CSc1ccc(CN2CCN(Cc3ccc([N+](=O)[O-])cc3)CC2)cc1 : what is it?
Return: 26.8% (active)

Enquiry: Reported inhibition for NS(=O)(=O)c1ccc(NC(=O)CCCCC(=O)Nc2ccc(S(N)(=O)=O)cc2)cc1 : what is it?
Return: -4.87% (inactive)

Enquiry: Reported inhibition for O=C(C1CCC(CNS(=O)(=O)c2cccs2)CC1)N1CCN(c2ccc(Cl)cc2)CC1 (centres undefined) : what is it?
Return: 34.6% (active)

Enquiry: Reported inhibition for CC(=O)NC(c1ccc(C)cc1)c1cc(Cl)c2cccnc2c1O (centres undefined) : what is it?
Return: 29.6% (active)

Enquiry: Reported inhibition for CCc1ccc(N(CC)c2ncnc3nc[nH]c23)cc1 : what is it?
Return: 36.9% (active)

Enquiry: Reported inhibition for COc1cc2c(cc1OC)CN(C(=O)c1cc(S(=O)(=O)N3CCOCC3)ccc1C)CC2 : what is it?
Return: 7.41% (inactive)

----------
Give inhibition for every item shown.
Target: Steroidogenic factor 1 (Homo sapiens)
Test: SF1 (NR5A1) inverse agonists, counter-screen for LRH-1 inverse agonist project, cell-based, luminescence, high throughput (AID 651614);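 further: cells cotransfected with StAR promoter reporter and SF1 expression vector; 0% = vehicle on cells with receptor and 100% = vehicle on cells lacking receptor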
Settings: cell-based SF1 luciferase reporter, at 3.6 µM, hits give high values
Calls of active or inactive are those of the source. Cut-off read from the data, not from the text of the source: active = inhibition above about 44%; inactive = the rest.

Enquiry: Reported inhibition for O=C(CSc1ncccc1-c1nc2ccccc2[nH]1)Nc1ccc2c(c1)OCCO2 : what is it?
Return: 5.63% (inactive)

Enquiry: Reported inhibition for COC1C=CC=C(C)C(=O)NC2=CC(=O)C(N)=C(CC(C)CC(OC)C(O)C(C)C=C(C)C1OC(N)=O)C2=O (stereo unspecified) : what is it?
Return: 85.5% (active)

Enquiry: Reported inhibition for O=C1/C(=C/c2ccccc2)CN(C(=O)CCN2CCOCC2)C/C1=C\c1ccccc1 : what is it?
Return: 56.7% (active)

Enquiry: Reported inhibition for CCOC(=O)c1cc2sccc2n1CC(=O)Nc1ccc2c(c1)OCCO2 : what is it?
Return: 52.2% (active)

Enquiry: Reported inhibition for C(=NN1CCCCCC1)c1ccc2ccccc2n1 : what is it?
Return: 87% (active)

Enquiry: Reported inhibition for O=C(c1ccc(Oc2ccc(Cl)cc2)c([N+](=O)[O-])c1)N1CCCC1 : what is it?
Return: 38% (inactive)

Enquiry: Reported inhibition for CC(=O)Nc1cc(-c2ccccc2N(C)C)cn2c(-c3ccc(S(C)(=O)=O)cc3)cnc12 : what is it?
Return: 36.5% (inactive)

Enquiry: Reported inhibition for Cc1cc2[nH]c3c(c[n+](C)c4ccccc34)c2cc1C : what is it?
Return: 66.4% (active)

Enquiry: Reported inhibition for CC(C)(O)C#Cc1ccc([C@@H]2C[C@H]3CN(c4ccccc4)C(=O)[C@]34CCCN24)s1 : what is it?
Return: 28.3% (inactive)

Enquiry: Reported inhibition for COc1cc(C)c(Br)cc1S(=O)(=O)NCc1ccncc1 : what is it?
Return: 38.5% (inactive)

Enquiry: Reported inhibition for O=C(CSc1ncn[nH]1)Nc1ccc(Cl)c(Cl)c1 : what is it?
Return: 39% (inactive)

Enquiry: Reported inhibition for CC(C)CCOc1cccc(OCC(=O)Nc2ccncc2)c1 : what is it?
Return: 60.3% (active)

Enquiry: Reported inhibition for CC1CCC(C(C)C)C(OC(=O)Cn2c(-c3ccccc3)[n+](C)c3ccccc32)C1 (stereo unspecified) : what is it?
Return: 83.8% (active)

Enquiry: Reported inhibition for CC(=O)Nc1cccc(-c2cc(NC=O)c3ncc(-c4cccc(C(C)=O)c4)n3c2)c1 : what is it?
Return: 53.2% (active)

Enquiry: Reported inhibition for CCN1CCN(/C=N/c2nc3c(s2)CCCC3)CC1 : what is it?
Return: -86.7% (inactive)

Enquiry: Reported inhibition for COc1cc(-c2cc(-c3ccc(O)cc3)nc(N)c2C#N)ccc1O : what is it?
Return: 53.9% (active)

Enquiry: Reported inhibition for COc1cccc(N2CCN(CC(=O)Nc3ccc(-n4cnnn4)cc3)CC2)c1 : what is it?
Return: 48.9% (active)

Enquiry: Reported inhibition for Cc1cc(/C=C2\SC(=S)N(C)C2=O)c(C)n1-c1ccc(O)cc1 : what is it?
Return: 48% (active)

Enquiry: Reported inhibition for COc1ccc(-c2ccc(C(=O)NCc3ccncc3)c3occc23)c(C)c1 : what is it?
Return: 70.1% (active)

Enquiry: Reported inhibition for CN1CCN(/N=C/c2nc(-c3cccc([N+](=O)[O-])c3)n3ccccc23)CC1 : what is it?
Return: 42.2% (inactive)

Enquiry: Reported inhibition for COc1cc(/C=C2/SC(=Nc3ccc(O)cc3)NC2=O)ccc1O : what is it?
Return: 43.5% (active)
